# SUBJECT_OF_TEST: JAK1 (Homo sapiens (Human), UniProt P23458)
# Sequence (P23458 875-1153): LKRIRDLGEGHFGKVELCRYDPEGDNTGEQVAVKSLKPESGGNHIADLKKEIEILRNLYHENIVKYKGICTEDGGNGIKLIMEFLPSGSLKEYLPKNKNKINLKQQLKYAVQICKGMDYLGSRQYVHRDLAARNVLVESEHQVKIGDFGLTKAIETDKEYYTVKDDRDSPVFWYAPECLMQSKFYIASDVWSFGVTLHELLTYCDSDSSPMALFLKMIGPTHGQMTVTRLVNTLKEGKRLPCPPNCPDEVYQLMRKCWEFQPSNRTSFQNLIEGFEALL
# RUN_DESCRIPTION: Jak Biochemical HTRF Assay, JAK1
# RUN_PARAMETERS: HTRF biochemical assay, GST-tagged catalytic domain; top concentration tested […]; read-out: JAK1 IC50
# Source text: Jak Biochemical HTRF Assay Protocol Subsequent reagent additions employed an Agilent Bravo.
QUANTITY_KIND: IC50 (nM)

Use the examples below as a reference point.
{"MOLECULE": "N#CCC1(n2cc(C(N)=O)c(Nc3ccc(-c4cn[nH]c4)nc3)n2)CCN(C(=O)OCC(F)(F)F)CC1", "NUMERIC_RESULT": 0.01}
{"MOLECULE": "N#CCC1(n2cc(C(N)=O)c(Nc3ccnc(F)c3)n2)CCN(Cc2cscn2)CC1", "NUMERIC_RESULT": 6}

I: N#CCC1(n2cc(C(N)=O)c(Nc3ccccc3)n2)CN(C(=O)Nc2ccc(F)c(Cl)c2)C1
II: N#CCC1(n2cc(C(N)=O)c(Nc3ccnc(F)c3)n2)CCC(NCc2ccccn2)CC1 (stereo not shown)
Form: Entry with minimum IC50 (choose one): I / II Output the label that corresponds to your choice.
I

###

# SUBJECT_OF_TEST: JAK2 (Homo sapiens (Human))
# Sequence (O60674 849-1124): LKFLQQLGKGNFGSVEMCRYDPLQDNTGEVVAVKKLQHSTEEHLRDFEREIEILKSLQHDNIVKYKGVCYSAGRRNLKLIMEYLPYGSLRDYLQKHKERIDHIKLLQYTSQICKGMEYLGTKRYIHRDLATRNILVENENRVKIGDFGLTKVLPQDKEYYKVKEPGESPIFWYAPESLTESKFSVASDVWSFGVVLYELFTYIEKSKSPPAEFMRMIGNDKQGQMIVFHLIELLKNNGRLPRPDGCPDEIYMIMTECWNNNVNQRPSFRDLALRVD
# RUN_DESCRIPTION: Jak Biochemical HTRF Assay, JAK2
# RUN_PARAMETERS: HTRF biochemical assay, GST-tagged catalytic domain; top concentration tested […]
QUANTITY_KIND: IC50 (nM)

A: N#CCC1(n2cc(C(N)=O)c(Nc3ccccc3)n2)CCN(C(=O)OCc2ccccc2F)CC1
B: N#CCC1(n2cc(C(N)=O)c(Nc3ccccc3)n2)CN(S(=O)(=O)c2ccco2)C1
Which shows the larger IC50 value: A or B ? Write down the label of the entry you select.
B
(B: 247 nM, A: 40 nM)

A: N#CCC1(n2cc(C(N)=O)c(Nc3ccccc3)n2)CN(C(=O)OCCCc2cccnc2)C1
B: N#CCC1(n2cc(C(N)=O)c(Nc3ccc(C4CCC4)nc3)n2)CCN(C(=O)OCC(F)F)CC1
IC50 comparison. Which is larger, A or B ? Kindly state the label of the option you pick.
A
(A: 445 nM, B: 3 nM)

I: COC(=O)c1ccc(Nc2nn(C3(CC#N)CCN(C(=O)OC(C)(C)C)CC3)cc2C(N)=O)cc1
II: N#CC[C@]1(n2cc(C(N)=O)c(Nc3ccccc3)n2)C[C@@H](C#N)C1
III: N#CC[C@@]1(n2cc(C(N)=O)c(Nc3ccnc(F)c3)n2)CCN(C(=O)OCC(F)F)C[C@@H]1F
IV: N#CCC1(n2cc(C(N)=O)c(Nc3ccnc(F)c3)n2)CCN(Cc2cccnn2)CC1
V: CC(C)(C)OC(=O)N1CCC(CC#N)(n2cc(C(N)=O)c(Nc3cccc(-c4cccc(Cl)c4)c3)n2)CC1
Reorder: IC50, max to min. Use the labels to give the ranking in the order requested.
V, II, IV, I, III

P: Cc1ccc(NC(=O)N2CC(CC#N)(n3cc(C(N)=O)c(Nc4ccccc4)n3)C2)cc1Cl
Q: N#CCC1(n2cc(C(N)=O)c(Nc3ccnc(F)c3)n2)CCN(Cc2ccnc3[nH]ccc23)CC1
Pick one, P or Q : lowest reported IC50. Reply with the label of the item you choose.
Q
(Q: 72 nM, P: 339 nM)

A: CS(=O)(=O)c1ccc(Nc2nn(C3(CC#N)CCC4(CC3)OCCO4)cc2C(N)=O)cc1
B: COC1CN(C2CCC(CC#N)(n3cc(C(N)=O)c(Nc4ccnc(F)c4)n3)CC2)C1 (stereo not drawn) [Example 40-81]
C: N#CCC1(n2cc(C(N)=O)c(Nc3ccc(F)cc3)n2)CCN(C(=O)OCC(F)(F)F)CC1
D: CC(C)(C)OC(=O)N1CCC(C(C#N)C2CC2)(n2cc(C(N)=O)c(Nc3ccc(F)cc3)n2)CC1 (stereo not drawn)
Sort the 4 compounds by IC50; largest first, smallest last. # the answer lists labels in the order requested
D, A, C, B
